Tested on: NMDA receptors
protocol: Chick retina assay: protection against excitotoxic action of NMDA
Format: cell-based
experimental-conditions: Table 1, normalized to kynurenic acid vs KA = 1
readout: EAA antagonist potency vs NMDA
Lab note: record just the number, no unit beside it.

// below: answered molecules
[
  {
    "molecule": "N[C@H](CCCCCP(=O)(O)O)C(=O)O [D-AP7, D-2-amino-7-phosphonoheptanoate]",
    "EAA antagonist potency vs NMDA": 13
  },
  {
    "molecule": "N#Cc1cc2[nH]c(=O)c(=O)[nH]c2cc1[N+](=O)[O-]",
    "EAA antagonist potency vs NMDA": 5
  },
  {
    "molecule": "O=C(O)c1cc(O)c2ccc(Cl)cc2n1 [7-Cl-kynurenate, 7-chloro-kynurenic acid]",
    "EAA antagonist potency vs NMDA": 10
  },
  {
    "molecule": "OC(CN1CCC(Cc2ccc(F)cc2)CC1)c1ccc(Cl)cc1 (stereo not drawn)",
    "EAA antagonist potency vs NMDA": 50
  },
  {
    "molecule": "NC(CCCC(=O)O)C(=O)O (stereo not drawn) [α-amino adipate]",
    "EAA antagonist potency vs NMDA": 5
  },
  {
    "molecule": "N[C@H](CCCP(=O)(O)O)C(=O)O [D-AP5, D-2-amino-5-phosphonopentanoate]",
    "EAA antagonist potency vs NMDA": 40
  },
  {
    "molecule": "O=C(O)c1cc(=O)c2ccccc2[nH]1",
    "EAA antagonist potency vs NMDA": 4
  },
  {
    "molecule": "O=c1[nH]c2cc([N+](=O)[O-])c([N+](=O)[O-])cc2[nH]c1=O",
    "EAA antagonist potency vs NMDA": 10
  }
]

Then there is this molecule:
get_value(item= CC(C(O)c1ccc(O)cc1)N1CCC(Cc2ccccc2)CC1 (stereo not drawn) , readout=EAA antagonist potency vs NMDA) returns 100
